testedSystem: T1, Full-length human TIGIT on CHO-K1 cells (CHO-K1 human TIGIT) (human, UniProt Q495A1 22-244)
T1 construct: NCBI XP_024309156.1; the entry includes the signal peptide (limits not recoverable); The strain (high, medium, low) is named under assay; also called high expression strain 1D2; medium expression strain 2D10
T1 sequence: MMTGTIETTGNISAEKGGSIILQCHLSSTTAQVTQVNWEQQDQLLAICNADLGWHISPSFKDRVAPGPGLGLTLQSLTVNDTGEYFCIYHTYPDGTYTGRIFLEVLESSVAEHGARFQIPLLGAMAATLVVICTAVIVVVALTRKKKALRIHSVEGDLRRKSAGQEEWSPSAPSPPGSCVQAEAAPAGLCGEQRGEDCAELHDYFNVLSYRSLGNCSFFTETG
experimentalProtocol: cell binding, CHO-K1 human TIGIT high expression strain
Here, each record is paired with measured pEC50 data.
Please note pEC50 is a logarithmic value: minus log10 of concentration in mol/L. Answer with that number alone.

Some solved cases for reference:
binder	pEC50
TIGIT-006-H4L2 (antibody, V domains shown, Humanized anti-TIGIT antibody) VH: EVQLQESGPGLVKPSETLSLTCAVSGYSMTSDYWNWIRQPPGKKLEWMGYISYSGRTYYNPSLKSRITISRDTSKNQFSLKLSSVTAADTAVYYCARGDYSNYGGAMYDWGQGTTVTVSS VL: DIVMTQTPLSLSVTPGQPASISCRASQGVSTTIAWYQQKPGQSPKLLIYSASYRYTGVPDRFSGSGSGTDFTLKISRVEAEDVGVYYCQQYYSSPFTFGGGTKVEIK	10.60
TIGIT-002-H4L1 (antibody, V domains shown, Humanized anti-TIGIT antibody) VH: EVQLQESGPGLVKPSETLSLTCAVSGYSITSDSWNWIRQPPGKKLEYIGYISYSGNTYYNPSLKSRVTISRDTSKNQFSLKLSSVTAADTAVYYCARLDFSNYGGAVDYWGQGTTVTVSS VL: DIVMTQTPLSLSVTPGQPASISCKASQNVRTAVAWYLQKPGQSPQLMIYSASYRYTGVPDRFSGSGSGTDFTLKISRVEAEDVGVYYCQQYYTTPWTFGGGTKVEIK	10.60

Now consider a different binder.
Input: Give the reported value of pEC50 for this record: TIGIT-002-H2L1 (antibody, V domains shown, Humanized anti-TIGIT antibody) VH: EVQLQESGPGLVKPSETLSLTCAVSGYSITSDSWNWIRQPPGKKLEWIGYISYSGNTYYNPSLKSRVTISRDTSKNQFSLKLSSVTAADTAVYYCARLDFSNYGGAVDYWGQGTTVTVSS VL: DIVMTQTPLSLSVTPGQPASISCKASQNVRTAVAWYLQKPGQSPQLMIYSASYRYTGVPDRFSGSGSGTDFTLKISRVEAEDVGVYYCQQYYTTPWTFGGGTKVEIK
Output: 10.33
